FYI, the data here is from patent US9247759B2.

# System under test: hT2R8 (Homo sapiens (Human))
# Method notes: hT2R8 antagonist high-throughput FLIPR assay, stable cell line with G16g44, agonist andrographolide
# Format: cell-based
# Reported conditions: read-out: IC50 on hT2R8 bitter receptor
pIC50: −log10 of the molar value.
Give t when the value for pIC50 is at least 7. Give f when it is less.

For orientation, consider the following solved cases.
Does the compound COc1cccc(CN2CC(=O)N(c3cnn(Cc4c(C)noc4C)c3)C2=O)n1 [Example 10-75] have recorded pIC50 that is 7 or more?
f

Given Cc1noc(C)c1Cn1cc(N2C(=O)CN(Cc3cccc(C(=O)O)c3)C2=O)cn1 [Example 10-8] , state whether its pIC50 is at least 7.
f

Is it the case that Cc1noc(C)c1Cn1cc(N2C(=O)NC(Cc3ccc(O)cc3)C2=O)cn1 (stereo not shown) [Example 10-59] has pIC50 reaching or exceeding 7?
f

Kindly determine if pIC50 recorded for Cc1noc(C)c1Cn1cc(NC(=O)c2cccc(C#N)c2)cn1 [Example 4-10] is above or exactly 7.
f

In plain terms: is recorded pIC50 at least 7 for Cc1noc(C)c1Cn1cc(N2C(=O)N(Cc3cccnc3)C(C)(C)C2=O)cn1 [Example 12-36] ?
f

Hi, just wondering whether COCc1cccc(CN2C(=O)N(c3cnn(Cc4c(C)noc4C)c3)C(=O)C23CC3)c1 [Example 12-14] shows pIC50 of 7 or higher.
t

Is the recorded value of pIC50 equal to or greater than 7 for this compound? COc1cccc(CNC(=O)CC2NC(=O)N(c3cnn(Cc4c(C)noc4C)c3)C2=O)c1 (stereo not shown) [Example 10-50]
f

Kindly determine if pIC50 recorded for CCCCn1c(=O)n(-c2cnn(Cc3c(C)noc3C)c2)c(=O)n1Cc1ccccc1 [Example 10-95] is above or exactly 7.
f

More entries:
Determine whether measured pIC50 meets or exceeds 7 for Cc1noc(C)c1Cn1cc(N2CCN(Cc3ccccc3)C2=O)cn1 [Example 10-88]
f

----------
# System under test: UniProt:P59537
# Sequence (P59537 whole entry): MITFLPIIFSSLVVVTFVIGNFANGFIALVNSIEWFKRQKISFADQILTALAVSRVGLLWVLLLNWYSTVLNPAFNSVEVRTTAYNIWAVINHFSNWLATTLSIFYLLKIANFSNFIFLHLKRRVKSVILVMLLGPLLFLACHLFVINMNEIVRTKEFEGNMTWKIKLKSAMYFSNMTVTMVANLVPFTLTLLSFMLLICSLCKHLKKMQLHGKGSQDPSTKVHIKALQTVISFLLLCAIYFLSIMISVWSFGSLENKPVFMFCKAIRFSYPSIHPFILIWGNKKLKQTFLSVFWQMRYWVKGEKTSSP
# Method notes: hT2R panel inhibition, transient HEK293 G16g44, agonist Aristolochic Acid 25 nM
# Type: cell-based
# Reported conditions: HEK293, compound at 25 μM; receptor activated to EC80 with the corresponding agonist; read-out: screening result against bitter receptor 61
Readout label: inhibition at 25 µM

Quick note, inhibition at 25 µM for COc1ccc(CN(Cc2ccoc2)S(=O)(=O)c2ccc(C(=O)O)cc2)cc1 landed at > 80%

We next turn to a different compound, shown below.
Per the record, COc1ccc(CN(Cc2ccc(C(=O)O)cc2)S(=O)(=O)c2ccc(O)cc2)cc1 has inhibition at 25 µM of > 80%

----------
# System under test: hT2R71 (Homo sapiens (Human))
# Sequence (P59536 whole entry): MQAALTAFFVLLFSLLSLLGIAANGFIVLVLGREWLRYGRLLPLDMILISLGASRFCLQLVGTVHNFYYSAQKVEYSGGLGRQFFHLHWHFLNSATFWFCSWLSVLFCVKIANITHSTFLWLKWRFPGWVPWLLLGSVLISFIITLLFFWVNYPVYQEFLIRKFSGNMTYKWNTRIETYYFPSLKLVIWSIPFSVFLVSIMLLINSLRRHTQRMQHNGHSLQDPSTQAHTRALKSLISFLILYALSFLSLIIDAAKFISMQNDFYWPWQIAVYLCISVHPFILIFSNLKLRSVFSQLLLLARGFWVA
# Method notes: hT2R panel inhibition, transient HEK293 G16g44, agonist Picric Acid 10 μM
# Type: cell-based
# Reported conditions: HEK293, compound at 25 μM; receptor activated to EC80 with the corresponding agonist; read-out: screening result against bitter receptor 71
Readout label: inhibition at 25 µM

Recorded inhibition at 25 µM for Cc1ccccc1CN(Cc1ccccc1)S(=O)(=O)c1ccc(C(=O)O)cc1 [Example 5-80] on hT2R71 (Homo sapiens (Human)) was 60 to 80%

New cases:
# inhibition at 25 µM measured on hT2R71 (Homo sapiens (Human)) for item COc1ccc(CN(Cc2cccc(OC)c2)S(=O)(=O)c2ccc(C(=O)O)cc2)cc1 [Example 5-34] = 60 to 80%

The observed inhibition at 25 µM for O=C(O)c1ccc(CN(Cc2ccccc2F)S(=O)(=O)c2ccccc2)cc1 [Example 5-103] when tested with hT2R71 (Homo sapiens (Human)) stands at > 80%

Field inhibition at 25 µM (system: hT2R71 (Homo sapiens (Human))) for entry COc1ccc(CN(Cc2ccc(F)c(OC)c2)S(=O)(=O)c2ccc(C(=O)O)cc2)cc1 [Example 5-50] = 60 to 80%

Noted inhibition at 25 µM for COc1ccc(CCN(Cc2ccccc2)S(=O)(=O)c2ccc(C(=O)O)cc2)cc1 [Example 5-81] , tested on hT2R71 (Homo sapiens (Human)): 20 to 40%

----------
inhibition at 25 µM reference
# System under test: hT2R64 (Homo sapiens (Human), UniProt P59538)
# Sequence (P59538 whole entry): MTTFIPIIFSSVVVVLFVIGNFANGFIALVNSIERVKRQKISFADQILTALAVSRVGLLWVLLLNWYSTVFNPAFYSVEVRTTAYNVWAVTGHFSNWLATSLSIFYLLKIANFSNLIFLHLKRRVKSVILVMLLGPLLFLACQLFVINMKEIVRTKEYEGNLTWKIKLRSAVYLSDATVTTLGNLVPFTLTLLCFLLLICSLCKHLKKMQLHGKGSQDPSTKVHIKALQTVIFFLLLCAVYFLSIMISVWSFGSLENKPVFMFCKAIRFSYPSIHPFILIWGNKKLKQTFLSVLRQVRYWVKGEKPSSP
# Method notes: hT2R panel inhibition, transient HEK293 G16g44, agonist Aristolochic Acid 1 μM
# Format: cell-based
# Reported conditions: HEK293, compound at 25 μM; receptor activated to EC80 with the corresponding agonist; read-out: screening result against bitter receptor 64

Examples with their reported inhibition at 25 µM follow.
Measured inhibition at 25 µM, COc1ccc(CN(Cc2ccc(OC)c(F)c2)S(=O)(=O)c2ccc(C(=O)O)cc2)cc1 : 60 to 80%

Sure, the documented inhibition at 25 µM for COc1cc(OC)c(CN(Cc2ccccc2)S(=O)(=O)c2ccc(C(=O)O)cc2)c(OC)c1 is 60 to 80%

Summary for this compound, COc1ccc(CN(c2ccccc2)S(=O)(=O)c2ccc(C(=O)O)cc2)cc1 : inhibition at 25 µM is > 80%

Proceeding to the next compound to report its inhibition at 25 µM.
What the record says about O=C(O)c1ccc(S(=O)(=O)N(Cc2ccccc2)Cc2ccccc2F)cc1 : inhibition at 25 µM is 20 to 40%

----------
# System under test: hT2R8 (Homo sapiens (Human))
# Method notes: hT2R8 antagonist high-throughput FLIPR assay, stable cell line with G16g44, agonist andrographolide
# Format: cell-based
# Reported conditions: Table A; read-out: hT2R8 IC50
Quick reference: IC50 of the listed items.

So for Cc1noc(C)c1Cn1cc(NS(=O)(=O)c2ccccc2C#N)cn1 , the logged IC50 turned out to be 1360 nM

Per the records, this compound ( Cc1noc(C)c1Cn1cc(NC(=O)C(CO)c2ccccc2)cn1 (stereo not drawn) ) has IC50 equal to 960 nM

For Cc1noc(C)c1Cn1cc(NC(=O)c2ccc3c(c2)OC(F)(F)O3)cn1 the compound record lists IC50 as 1300 nM

Recorded IC50 (compound Cc1noc(C)c1Cn1cc(NC(=O)c2cccc(S(C)(=O)=O)c2)cn1 ): 720 nM

For this compound ( Cc1noc(C)c1Cn1cc(NC(=O)c2ccc3c(c2)OCCO3)cn1 ), measured IC50 is 400 nM

Reported IC50 ( Cc1noc(C)c1Cn1cc(NC(=O)c2ccoc2C)cn1 ) = 7870 nM

For COc1cccc(C(=O)Nc2nnn(Cc3c(C)noc3C)n2)c1 the compound record lists IC50 as 1870 nM

Sample Cc1noc(C)c1Cn1cc(NC(=O)CCc2ccccc2)cn1 ; IC50 observed: 490 nM

The measured IC50 associated with Cc1noc(C)c1Cn1cc(NC(=O)c2ccc(F)cc2)cn1 reads 1560 nM

IC50 reading for Cc1noc(C)c1Cn1cc(NC(=S)NCc2ccccc2)cn1 : 1100 nM

Others:
// IC50 value for Cc1cc2cc(C(=O)Nc3cnn(Cc4c(C)noc4C)c3)ccc2o1 : 2100 nM

Sample Cc1noc(C)c1Cn1cc(N(C)C(=O)C(C)c2ccccc2)cn1 (stereo not drawn) [Example 4-97] ; IC50 observed: 2130 nM

----------
# System under test: hT2R14 (Homo sapiens (Human), UniProt Q9NYV8)
# Sequence (Q9NYV8 whole entry): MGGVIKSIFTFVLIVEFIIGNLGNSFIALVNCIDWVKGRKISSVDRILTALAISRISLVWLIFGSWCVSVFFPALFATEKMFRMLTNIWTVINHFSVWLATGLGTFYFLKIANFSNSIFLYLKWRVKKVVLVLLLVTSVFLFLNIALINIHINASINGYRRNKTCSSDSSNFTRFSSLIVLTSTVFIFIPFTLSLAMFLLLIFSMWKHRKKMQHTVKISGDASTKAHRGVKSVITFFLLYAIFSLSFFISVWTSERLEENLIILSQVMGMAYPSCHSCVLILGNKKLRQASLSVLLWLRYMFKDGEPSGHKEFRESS
# Method notes: hT2R14 antagonist high-throughput FLIPR assay, stable cell line with G16g44, agonist aristolochic acid
# Format: cell-based
# Reported conditions: Table D; read-out: hT2R14 IC50
# Protocol: The inventors also used the automated fluorimetric […] system FLIPR using a slightly different protocol. A HEK293 cell line stably expressing G16gust44 was transfected with a hT2R expression plasmid, 24 hours later, the cells are loaded and analyzed on FLIPR. […]
Reported IC50 is given for each of the following molecules.
Express the reported value numerically, then name its unit.

The recorded IC50 for entry Cc1cc(C)c(C#N)c(NS(=O)(=O)c2ccc3c(c2)c(=O)n(C)c(=O)n3C)c1 [Example 6-17] equals 1.95 µM

For Cn1c(=O)c2c(SCC(=O)NCc3ccccc3)ccnc2n(C)c1=O [Example 6-29] the molecule record lists IC50 as 0.71 µM

# molecule Cn1c(=O)c2cc(S(=O)(=O)Nc3ccc4c(c3)OCO4)ccc2n(C)c1=O [Example 6-5] ; its IC50 = 0.264 µM

Turning now to a further molecule:
The molecule Cn1c(=O)c2cc(S(=O)(=O)Nc3ccc(Cl)cc3F)ccc2n(C)c1=O [Example 6-23] showed IC50 equal to 9.7 µM

----------
Collected log10(IC50) values appear next to each entry.
# System under test: hT2R8 (Homo sapiens (Human), UniProt Q9NYW2)
# Sequence (Q9NYW2 whole entry): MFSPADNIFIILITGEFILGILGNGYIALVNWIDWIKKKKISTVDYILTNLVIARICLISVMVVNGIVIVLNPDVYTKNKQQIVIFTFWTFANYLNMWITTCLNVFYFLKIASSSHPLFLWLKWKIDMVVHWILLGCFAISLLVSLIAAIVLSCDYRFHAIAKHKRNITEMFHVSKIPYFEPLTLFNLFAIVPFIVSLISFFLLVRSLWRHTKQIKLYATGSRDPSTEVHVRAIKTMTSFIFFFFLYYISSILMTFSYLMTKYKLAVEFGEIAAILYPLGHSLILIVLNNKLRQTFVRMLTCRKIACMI
# Method notes: hT2R8 antagonist high-throughput FLIPR assay, stable cell line with G16g44, agonist andrographolide
# Format: cell-based
# Reported conditions: read-out: IC50 on hT2R8 bitter receptor
Note: values are log10 of IC50 expressed in nM.

Look over these answered cases.
Form field log10(IC50), entry COc1cccc(CN2C(=O)N(c3cnn(Cc4c(C)noc4C)c3)C(=O)C2(C)C)c1 : 1.90

What the record says about Cc1ccccc1CN1C(=O)N(c2cnn(Cc3c(C)noc3C)c2)C(=O)C1(C)C : log10(IC50) is 2.00

Short answer for Cc1noc(C)c1Cn1cc(-n2c(=O)n(C)n(CCOc3ccccc3)c2=O)cn1 : log10(IC50) was 1.49

What the record says about COc1cccc(CCN2CC(=O)N(c3cnn(Cc4c(C)noc4C)c3)C2=O)c1 : log10(IC50) is 2.20

Cc1noc(C)c1Cn1cc(N2C(=O)[C@@H](C)N(Cc3cccc(O)c3)C2=O)cn1 yielded log10(IC50) of 1.30

// sample Cc1noc(C)c1Cn1cc(N2C(=O)N(Cc3cc(C)n(C)n3)C(C)(C)C2=O)cn1 , its log10(IC50) was 2.20

The molecule listed as Cc1noc(C)c1Cn1cc(N2C(=O)N(Cc3cccc(CO)c3)C(C)(C)C2=O)cn1 shows log10(IC50) equal to 2.04

Sample Cc1noc(C)c1Cn1cc(N2C(=O)C3Cc4cc(O)ccc4CN3C2=O)cn1 (stereo not drawn) ; log10(IC50) observed: 1.48

Value of log10(IC50) reported for the molecule Cc1noc(C)c1Cn1cc(N2C(=O)NC(C)C2=O)cn1 (stereo not drawn) is 3.11

# log10(IC50) of Cc1noc(C)c1Cn1cc(NC(=O)c2ccc3c(c2)OCO3)cn1 = 2.30

***
// Cc1noc(C)c1Cn1cc(N2C(=O)CN(C)C2=O)cn1 : log10(IC50) value = 2.76

The molecule Cc1noc(C)c1Cn1cc(N2C(=O)CN(Cc3ccccc3)C2=O)cn1 showed log10(IC50) equal to 1.95

Entry Cc1noc(C)c1Cn1cc(N2C(=O)NC(CCCc3ccccc3)C2=O)cn1 (stereo not drawn) — recorded log10(IC50) = 2.23

Record Cc1noc(C)c1Cn1cc(N2C(=O)N[C@H](Cc3ccccc3)C2=O)cn1 . Reported log10(IC50): 2.04
